As shown below, each of these compounds has a reported K₁(alpha₁)/K₁(alpha₃) value.
- Tested on: alpha₃ isoform of rat (Na⁺+K⁺)-ATPase
- test.method.notes: Displacement of [3H]-ouabain, alpha3 isoform, rat brain preparation
- Type: binding
- cond: selectivity index, alpha₁ (rat kidney) versus alpha₃ (rat brain)
Could you keep your reply to the number by itself?

1) C[C@]12CC[C@H](O)C[C@H]1CC[C@@H]1[C@@H]2CC[C@]2(C)[C@@H](c3ccnnc3)CC[C@]12O 96
2) CO[C@H]1[C@H](O)[C@H](O[C@H]2CC[C@@]3(C)[C@H](CC[C@@H]4[C@@H]3CC[C@]3(C)[C@@H](c5ccnnc5)CC[C@]43O)C2)O[C@@H](C)[C@@H]1O 63

// query K₁(alpha₁)/K₁(alpha₃) value for entry CO[C@H]1[C@H](O)[C@H](O[C@H]2CC[C@@]3(C)[C@H](CC[C@@H]4[C@@H]3CC[C@]3(C)[C@@H](C5=CC(=O)OC5)CC[C@]43O)C2)O[C@@H](C)[C@@H]1O
90
